# Tested on: human gammaherpesvirus 4
# TEST NAME: Binding affinity to EB virus F-g4-EBNA1 mRNA assessed as increase in melting temperature at 1 uM by fluorescence method
RESULT TYPE: ΔTm

INSERT INTO assay_data (given_smiles, result_type, result) VALUES
  ('CC[n+]1cccc2cc(/C=N/NC(=O)c3ccc4ccc5ccc(C(=O)N/N=C/c6ccc7c(ccc[n+]7CC)c6)nc5c4n3)ccc21.[I-].[I-]', 'ΔTm', '20 to 30 °C'),
  ('O=C(N/N=C/c1cc[n+](Cc2ccccc2)c2ccccc12)c1ccc2ccc3ccc(C(=O)N/N=C/c4cc[n+](Cc5ccccc5)c5ccccc45)nc3c2n1.[Br-].[Br-]', 'ΔTm', '20 to 30 °C'),
  ('C[n+]1ccc(/C=N/NC(=O)c2ccc3ccc4ccc(C(=O)N/N=C/c5cc[n+](C)c6ccccc56)nc4c3n2)c2ccccc21.[I-].[I-]', 'ΔTm', '20 to 30 °C');
